- assay-comment: physchem
- settings: organic solvent or mixture
reported-endpoint: solubility (µg/mL)
Please reply with the bare figure in µg/mL and do not write the unit itself.

Just so you know, measured solubility for `Cn1c(C#N)ccc1-c1ccc2c(c1)C1(CCCCC1)C(=NC#N)N2` came out at 3000

Value source: patent US8609712B2
